The reader will find reported BHET released values listed item by item below.
test: BHET released, HPLC; higher = more BHET released; extreme values may be limits of the assay; conditions: PET substrate: aFilm; 70 °C; pH 4.5; 24 h

| seq | BHET released / mM |
| --- | --- |
| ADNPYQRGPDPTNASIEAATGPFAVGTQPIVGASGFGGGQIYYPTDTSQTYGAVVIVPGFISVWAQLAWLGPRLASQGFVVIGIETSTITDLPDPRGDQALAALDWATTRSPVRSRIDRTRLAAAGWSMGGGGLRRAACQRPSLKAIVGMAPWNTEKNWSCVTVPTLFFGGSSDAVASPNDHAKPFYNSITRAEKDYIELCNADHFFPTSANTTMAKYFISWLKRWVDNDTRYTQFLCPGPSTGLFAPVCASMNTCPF [CaPETaseM9] | 0 |
| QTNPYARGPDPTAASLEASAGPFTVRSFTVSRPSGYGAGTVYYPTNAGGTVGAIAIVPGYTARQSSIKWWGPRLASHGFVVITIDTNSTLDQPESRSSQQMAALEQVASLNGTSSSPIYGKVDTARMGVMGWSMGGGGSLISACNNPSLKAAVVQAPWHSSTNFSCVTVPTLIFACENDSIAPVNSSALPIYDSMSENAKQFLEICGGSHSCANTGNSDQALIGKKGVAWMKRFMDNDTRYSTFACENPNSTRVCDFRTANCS [Z1-PETase] | 0 |
| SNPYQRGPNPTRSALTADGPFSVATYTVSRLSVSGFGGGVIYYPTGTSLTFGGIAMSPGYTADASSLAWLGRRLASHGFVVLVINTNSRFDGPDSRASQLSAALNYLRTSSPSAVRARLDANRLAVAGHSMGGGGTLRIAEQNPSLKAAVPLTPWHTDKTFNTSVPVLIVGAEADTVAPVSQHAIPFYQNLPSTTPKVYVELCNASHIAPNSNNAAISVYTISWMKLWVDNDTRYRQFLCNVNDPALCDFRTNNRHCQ [LCC-ICCG] | 0 |

* * *

assay: PET hydrolysis product formed (TPA+MHET+BHET, UV-Vis) per mg enzyme (mmol/mg enzyme); higher = more PET depolymerisation activity; extreme values may be limits of the assay; details: PET substrate: cryPow; 70 °C; pH 6.5; 24 h
Here the recorded PET hydrolysis product formed is given for each entry.

| seq | PET hydrolysis product formed |
| --- | --- |
| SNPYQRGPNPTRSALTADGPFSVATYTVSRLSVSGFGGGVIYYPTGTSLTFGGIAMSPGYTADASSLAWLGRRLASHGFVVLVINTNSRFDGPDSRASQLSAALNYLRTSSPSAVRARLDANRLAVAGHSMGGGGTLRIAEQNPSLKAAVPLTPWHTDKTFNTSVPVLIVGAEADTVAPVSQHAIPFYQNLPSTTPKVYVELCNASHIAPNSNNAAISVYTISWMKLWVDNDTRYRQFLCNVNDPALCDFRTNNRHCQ [LCC-ICCG] | 0.0781 |
| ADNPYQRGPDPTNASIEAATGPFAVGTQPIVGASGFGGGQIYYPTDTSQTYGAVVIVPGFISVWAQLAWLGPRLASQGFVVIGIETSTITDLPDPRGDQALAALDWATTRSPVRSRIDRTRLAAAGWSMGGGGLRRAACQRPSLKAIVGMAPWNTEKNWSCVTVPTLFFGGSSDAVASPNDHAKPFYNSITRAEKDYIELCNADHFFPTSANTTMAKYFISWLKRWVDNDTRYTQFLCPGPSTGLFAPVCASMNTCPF [CaPETaseM9] | 0.0154 |
| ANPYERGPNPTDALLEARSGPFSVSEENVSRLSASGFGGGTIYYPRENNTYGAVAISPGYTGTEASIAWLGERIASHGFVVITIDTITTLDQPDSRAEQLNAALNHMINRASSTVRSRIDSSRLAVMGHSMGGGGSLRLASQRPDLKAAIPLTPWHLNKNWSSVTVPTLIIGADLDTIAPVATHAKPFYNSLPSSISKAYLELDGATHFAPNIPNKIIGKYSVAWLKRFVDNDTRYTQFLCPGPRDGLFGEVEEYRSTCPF [TfCut2] | 0 |

* * *

assay: terephthalic acid (TPA) released, HPLC; higher = more TPA released; extreme values may be limits of the assay; details: PET substrate: cryPow; 60 °C; pH 7.5; 24 h
endpoint.name: terephthalic acid (mM)

| seq | endpoint.name | units.text | recorded.result |
| --- | --- | --- | --- |
| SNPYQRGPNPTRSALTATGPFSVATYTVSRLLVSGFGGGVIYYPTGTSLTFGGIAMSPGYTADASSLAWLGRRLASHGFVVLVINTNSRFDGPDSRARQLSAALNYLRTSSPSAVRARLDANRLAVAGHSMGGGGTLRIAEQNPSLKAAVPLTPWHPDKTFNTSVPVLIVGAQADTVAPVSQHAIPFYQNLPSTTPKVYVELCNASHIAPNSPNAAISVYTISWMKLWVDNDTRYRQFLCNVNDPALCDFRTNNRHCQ [LCC-ICCG I6M] | terephthalic acid | mM | 0.116 |
| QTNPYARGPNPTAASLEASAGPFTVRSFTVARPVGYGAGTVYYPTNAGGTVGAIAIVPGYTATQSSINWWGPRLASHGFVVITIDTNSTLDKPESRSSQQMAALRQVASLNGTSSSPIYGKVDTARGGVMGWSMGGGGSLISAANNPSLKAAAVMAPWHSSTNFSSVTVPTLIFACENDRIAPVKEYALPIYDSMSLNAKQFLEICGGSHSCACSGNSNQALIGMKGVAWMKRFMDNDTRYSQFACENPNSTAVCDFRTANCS [HotPETase] | terephthalic acid | mM | 0.312 |
| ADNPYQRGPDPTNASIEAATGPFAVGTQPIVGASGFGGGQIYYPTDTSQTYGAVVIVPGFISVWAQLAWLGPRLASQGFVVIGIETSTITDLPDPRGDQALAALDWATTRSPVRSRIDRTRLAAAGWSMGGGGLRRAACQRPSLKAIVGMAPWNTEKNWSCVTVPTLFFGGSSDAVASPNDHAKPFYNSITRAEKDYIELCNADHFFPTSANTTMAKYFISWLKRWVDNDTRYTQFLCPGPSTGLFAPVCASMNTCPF [CaPETaseM9] | terephthalic acid | mM | 0.0946 |

* * *

assay: terephthalic acid (TPA) released, HPLC; higher = more TPA released; extreme values may be limits of the assay; conditions: PET substrate: cryPow; 60 °C; pH 7.5; 24 h

| seq | terephthalic acid / mM |
| --- | --- |
| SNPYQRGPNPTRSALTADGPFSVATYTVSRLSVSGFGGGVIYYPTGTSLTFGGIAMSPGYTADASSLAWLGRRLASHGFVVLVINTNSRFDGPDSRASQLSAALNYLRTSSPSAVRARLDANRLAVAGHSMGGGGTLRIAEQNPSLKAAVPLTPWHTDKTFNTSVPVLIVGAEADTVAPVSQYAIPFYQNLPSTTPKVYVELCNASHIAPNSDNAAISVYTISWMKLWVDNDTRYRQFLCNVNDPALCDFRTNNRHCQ [LCC-A2] | 0.39 |
| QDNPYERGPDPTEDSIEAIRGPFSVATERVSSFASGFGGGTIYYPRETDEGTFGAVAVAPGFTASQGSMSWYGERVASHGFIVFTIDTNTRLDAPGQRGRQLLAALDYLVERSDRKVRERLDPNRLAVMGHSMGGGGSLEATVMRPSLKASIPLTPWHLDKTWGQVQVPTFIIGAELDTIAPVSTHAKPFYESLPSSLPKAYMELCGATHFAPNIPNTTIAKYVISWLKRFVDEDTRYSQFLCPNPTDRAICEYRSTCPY [Cut190*SS] | 0.0676 |
| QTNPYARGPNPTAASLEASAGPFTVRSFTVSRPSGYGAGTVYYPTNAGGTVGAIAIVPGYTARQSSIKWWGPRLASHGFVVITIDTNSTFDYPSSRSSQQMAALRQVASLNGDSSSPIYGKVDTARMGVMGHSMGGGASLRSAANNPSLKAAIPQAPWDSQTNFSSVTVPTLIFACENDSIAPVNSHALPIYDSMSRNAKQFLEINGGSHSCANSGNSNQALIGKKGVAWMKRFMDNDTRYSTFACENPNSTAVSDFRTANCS [DuraPETase] | 0.0835 |

* * *

experiment: PET hydrolysis product formed (TPA+MHET+BHET, UV-Vis) per mg enzyme (mmol/mg enzyme); higher = more PET depolymerisation activity; extreme values may be limits of the assay; conditions: PET substrate: aFilm; 70 °C; pH 5.5; 2 h
Entries annotated with measured PET hydrolysis product formed
endpoint.name: PET hydrolysis product formed

| seq | recorded.result |
| --- | --- |
| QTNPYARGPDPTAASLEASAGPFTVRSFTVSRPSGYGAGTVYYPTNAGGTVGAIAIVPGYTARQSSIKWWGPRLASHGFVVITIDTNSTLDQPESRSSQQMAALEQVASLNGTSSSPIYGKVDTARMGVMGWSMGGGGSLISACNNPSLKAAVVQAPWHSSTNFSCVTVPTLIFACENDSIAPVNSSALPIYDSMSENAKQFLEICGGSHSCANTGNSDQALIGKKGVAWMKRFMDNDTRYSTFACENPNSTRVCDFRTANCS [Z1-PETase] | 0 |
| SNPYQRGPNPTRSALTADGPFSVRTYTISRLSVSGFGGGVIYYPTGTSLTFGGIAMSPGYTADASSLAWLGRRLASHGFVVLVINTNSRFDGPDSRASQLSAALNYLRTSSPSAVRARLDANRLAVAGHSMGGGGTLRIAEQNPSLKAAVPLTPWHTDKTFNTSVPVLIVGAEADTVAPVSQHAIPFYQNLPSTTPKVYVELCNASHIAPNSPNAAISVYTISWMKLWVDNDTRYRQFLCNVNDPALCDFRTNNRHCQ [LCC-ICCG RIP] | 0.0525 |
| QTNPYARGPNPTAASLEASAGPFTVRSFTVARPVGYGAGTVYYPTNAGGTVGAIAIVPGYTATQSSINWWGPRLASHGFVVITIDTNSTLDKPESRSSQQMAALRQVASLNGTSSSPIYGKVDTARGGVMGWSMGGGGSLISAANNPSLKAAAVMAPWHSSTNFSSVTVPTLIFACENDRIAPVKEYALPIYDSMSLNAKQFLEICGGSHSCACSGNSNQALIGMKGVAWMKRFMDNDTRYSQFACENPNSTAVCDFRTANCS [HotPETase] | 0 |
